Data origin: patent US20220204501A1

Test system: CA6
experiment.summary: organism not typed
Format: cell-based
condition.context: RD, 96 h
test.readout: IC50

Prompt: Please state recorded IC50 (tested on CA6) of Nc1ccc(-c2ccc3ncc4ccc(=O)n(-c5cccc(C(F)(F)F)c5)c4c3c2)cn1
Completion: > 10 µM
